system: T47D; test: NCI tumour cell line growth inhibition, 48 h
Active and inactive are the calls of the source. Cut-off read from the data, not from the text of the source: active = GI50 up to about 1.1 µM and inactive = higher.
Select the correct class. Options are 1.0 for active, 0.0 for inactive and nothing else.

COMPOUND	TESTED_ON	CATEGORY
COC1/C=C/OC2(C)Oc3c(C)c(O)c4c(c3C2=O)C(=O)C=C(NC(=O)/C(C)=C\C=C\C(C)C(OC=O)C(C)C(O)C(C)C(OC(C)=O)C1C)C4=O (stereo unspecified)	T47D	0.0
CC(C)(C(=O)N(C(=O)N1CCN(c2ccccc2)CC1)S(=O)(=O)c1ccccc1)c1ccc(Cl)cc1	T47D	0.0
CCOC(=O)NC(Nc1c(F)c(F)c(F)c(F)c1F)(C(F)(F)F)C(F)(F)F	T47D	0.0
c1ccc(CN[C@]23C4C5CC6C7C5C2C7[C@@](NCc2ccccc2)(C64)N3Cc2ccccc2)cc1 (stereo partly specified)	T47D	0.0
C[C@@H]1[C@@H](c2ccccc2)O[B-](c2ccccc2)(c2ccccc2)N1C	T47D	0.0

Check the results log: what was the call for COC(=O)C1=C(OC(=O)c2ccccc2)C(C(=O)OC)[C@]2(O)[C@@H](C(=O)OC)[C@H]1C[C@@H](c1ccccc1)[C@@H]2C(=O)OC (stereo partly specified) ?
0.0

Check the results log: what was the call for "CCOC(=O)CCc1cn2cc(Br)nc(OC)c2n1" ?
0.0

Check the results log: what was the call for "O=C(CCc1ccc(O)c(O)c1)NCCc1cc(O)cc(OCc2ccccc2)c1" ?
0.0

Check the results log: what was the call for CCN(CC)C(=O)COc1cc2c(O)c3c(O)c(C)c4c(c13)C(=O)C(C)(OC=CC(OC)C(C)C(OC(C)=O)C(C)C(O)C(C)C(O)C(C)C=CC=C(C)C(=O)N2)O4 (stereo unspecified) ?
0.0

###

tested on: HCT-15
ENDPOINT: log10(GI50) (log10 of the value in µM)
// do not treat as linear: log10 of GI50, unit µM

COMPOUND	log10(GI50)
Cc1c2ccccc2nc2[nH]c3ccncc3c12	1.42
COc1ncc(C#CC(=O)c2ccccc2OC)c(OC)n1	-0.21
CCCCCCCCCCCCCCCCNCCCN(C)CCCN	1.24
O=[N+]([O-])/C(C(Cl)=C(Cl)Cl)=C(\N1CCCCC1)n1cncn1	1.20
O=C(NO)c1ccc(OCc2cccc(Cl)c2)cc1	0.66

Here's the next entry for you.
Which log10(GI50) value is on record for CC1=C(C(=O)OCCO[N+](=O)[O-])C(c2ccccc2C(F)(F)F)C(C(=O)OC(C)C)=C(C)N1 (stereo unspecified) ?
1.09

###

tested on: SK-MEL-5; experiment: NCI tumour cell line growth inhibition, 48 h
Calls of active or inactive are those of the source. Cut-off read from the data, not from the text of the source: active = GI50 up to about 1.1 µM and inactive = higher.
Some compounds, each annotated with its measured GI50.

Guide cases for GI50, answers given:
COMPOUND	DATA_VALUE
COc1ncc(C#CC(=O)c2ccccc2OC)c(OC)n1	2.06 µM (inactive)
Fc1ccc(C(OCCN2CC3CC2CN3)c2ccc(F)cc2)cc1 (stereo unspecified)	16.4 µM (inactive)
O=C(C(=O)c1cc2ccccc2[nH]1)c1cc2ccccc2[nH]1	> 301 µM (inactive)
CCCCCCCCCCOc1ccc(/N=N/c2nnc(-c3ccc(OCCCCC)cc3)s2)cc1	> 100 µM (inactive)
Cc1ccc2c(=O)c(-c3nnc(N)s3)c[nH]c2n1	> 100 µM (inactive)

Which GI50 value is on record for C[N+]1(CCCl)CC[N+](C)(CCCl)CC1 (stereo unspecified) ?
> 100 µM (inactive)

Which GI50 value is on record for "CC(=O)O[C@H]1CC[C@@]2(C)C(=C[C@H](c3ccc(O)cc3)[C@H]3[C@@H]4CC[C@H](OC(C)=O)[C@@]4(C)CC[C@@H]32)C1" ?
11.4 µM (inactive)

Which GI50 value is on record for "O=c1[nH]nc(NNc2ccccc2)c2nnn(C3CCCCC3)c12" ?
> 100 µM (inactive)

###

Some compounds, each annotated with its measured GI50.
tested on: K562; assay: NCI tumour cell line growth inhibition, 48 h
The source made the active and inactive calls. Rule as the data show it: active = GI50 up to about 1.1 µM and inactive = higher.

Guide cases for GI50, answers given:
COMPOUND	TESTED_ON	ENDPOINT	DATA_VALUE
Cn1cnc2nc(Cl)nc(NC(C)(C)C(C)(C)O)c21	K562	GI50	> 100 µM (inactive)
Cc1c2ccccc2c(C)n2c1nc1cc3ccccc3cc12	K562	GI50	2.91 µM (inactive)
O=C(CSc1nnc(-c2ccccn2)s1)N/N=C/c1ccc([N+](=O)[O-])cc1	K562	GI50	> 100 µM (inactive)
O=C1Nc2ccccc2/C1=N/NC(=O)C(O)(c1ccccc1)c1ccccc1	K562	GI50	23.2 µM (inactive)
CC(C)CC1c2[nH]c3ccccc3c2C[C@H]2C(=O)NC(Cc3c[nH]c4ccccc34)C(=O)N12 (stereo partly specified)	K562	GI50	11.5 µM (inactive)
CCOC1NC(=O)Oc2ccccc21 (stereo unspecified)	K562	GI50	> 100 µM (inactive)
Cc1c2c(C#N)nccc2c(C)c2c1c1ccccc1n2Cc1ccccc1	K562	GI50	> 100 µM (inactive)
O=c1[nH]nc(Cc2ccccc2)n1/N=C/c1ccccc1Cl	K562	GI50	> 100 µM (inactive)

Which GI50 value is on record for CCN(CC)CCN(C)c1ccc(CO)c2c1c(=O)c1ccccc1[s+]2[O-] (stereo unspecified) ?
3.83 µM (inactive)

Which GI50 value is on record for "Brc1cccc(/C=N/C23CC4CC(CC(C4)C2)C3)c1" ?
> 100 µM (inactive)

Which GI50 value is on record for "Clc1ccc(-n2nnc(C3=NCCCN3)c2-c2ccccc2)cc1" ?
> 100 µM (inactive)

###

system: M14; experiment: NCI tumour cell line growth inhibition, 48 h
Activity calls are given as the source filed them. No stated cut-off is given here; in the data, active = GI50 up to about 1.1 µM and inactive = higher.
Some compounds, each annotated with its measured GI50.

Guide cases for GI50, answers given:
COMPOUND	ENDPOINT	DATA_VALUE
COc1cc2c(cc1OC)CC(=O)Nc1cc(OC)c(OC)cc1CC2	GI50	36.1 µM (inactive)
CCP(=O)(CC)C(Cl)(Cl)C(=O)NC	GI50	> 100 µM (inactive)
C=C1c2nc3ccccc3n2C=C(c2ccc(Cl)cc2)N1c1ccccc1	GI50	16.3 µM (inactive)
CCCCCC(=O)OCC(=O)[C@H]1[C@H](C)C[C@H]2[C@@H]3C[C@H](F)C4=C/C(=N/OC(=O)c5cccc6c(=O)c7ccccc7[nH]c56)C=C[C@]4(C)[C@H]3[C@@H](O)C[C@@]21C	GI50	28.6 µM (inactive)
CC(=O)NC1C(OCc2ccccc2)OC(CO)C(O)C1OCC(=O)N[C@@H](C)C(=O)N[C@H](CCC(=O)NCCCCNc1c2ccccc2nc2cccc([N+](=O)[O-])c12)C(N)=O (some centres undefined)	GI50	2.23 µM (inactive)
O=C1c2ccccc2-c2nc(-c3ccncc3)cc3c2c1nc1ccccc13	GI50	3.21 µM (inactive)
C=CCC1C(=O)Nc2cccc3ncn(c23)C1=O (centres undefined)	GI50	> 100 µM (inactive)
Oc1ccc[n+](Cc2ccccc2)c1	GI50	> 100 µM (inactive)

Here's the next entry for you.
Which GI50 value is on record for "Cc1ccc(C)c(NC(=O)c2cc(-c3ccc([N+](=O)[O-])cc3)nc(N)n2)c1" ?
> 100 µM (inactive)

###

tested on: SK-MEL-5; test: NCI tumour cell line growth inhibition, 48 h
Activity calls are given as the source filed them. No stated cut-off is given here; in the data, active = GI50 up to about 1.1 µM and inactive = higher.
Select the correct class. Options are active, inactive and nothing else.

# count of solved cases: 6
MOLECULE	CATEGORY
BrC1(c2ccccc2)C[n+]2c(-c3ccccc3)cc(-c3ccccc3)cc2-c2ccccc21 (stereo not drawn)	active
N=c1c2ccccc2nc2oc3cc([N+](=O)[O-])ccc3n12	inactive
Cc1ccc2nc(C(=O)O)c(=O)[nH]c2c1	inactive
NC(=O)c1ncn(C2OC(CO)C(O)C2O)c1NC(=S)NC(=O)c1ccccc1 (stereo not drawn)	inactive
Brc1cccc(/C=N/C23CC4CC(CC(C4)C2)C3)c1	inactive
O=CNc1ccc2c(c1)C(=O)c1ccccc1-2	inactive

Check the results log: what was the call for CCOC1CN=C(Nc2cccc3ccccc23)S1 (stereo not drawn) ?
inactive

Check the results log: what was the call for "N=c1oc2ccccc2cc1-c1nc2ccccc2c(=O)[nH]1" ?
inactive

Check the results log: what was the call for "CCN(CC)CCSc1nc2cccc([N+](=O)[O-])c2[nH]1" ?
inactive

Check the results log: what was the call for "CN(C)CCCSc1c2ccccc2nc2cc(NCC(=O)Nc3ccccc3-c3ccccc3NC(=O)CNc3ccc4c(SCCCN(C)C)c5ccccc5nc4c3)ccc12" ?
inactive

Check the results log: what was the call for "CC1=C[C@@H](C)C[C@]2(C)CC[C@H](O2)[C@]23CC[C@](C)(C[C@H](O2)[C@@H]2O[C@@](C)(CC2=O)[C@@H](O)[C@H]2CC[C@@]4(CCC[C@@H](O4)[C@H](C)C(=O)O[C@H]4C[C@H]([C@]5(O)OCC[C@H](C)[C@@H]5O)O[C@H]4C=C1)O2)O3" ?
active

Check the results log: what was the call for "COC(=O)C#CC1(O)C=CC(=O)C=C1" ?
inactive

Check the results log: what was the call for "O=[N+]([O-])c1ccc(NN=C2c3ccccc3Cc3ccccc32)c([N+](=O)[O-])c1" ?
inactive

Check the results log: what was the call for "Cc1ccc2nc(-c3ccc(N)c(Br)c3)sc2c1" ?
inactive

Check the results log: what was the call for "Cc1nc(O)nc2nc3ccc(Cl)cc3c(NC(C)(CO)CO)c12" ?
inactive
